Attribution: ChEMBL document CHEMBL5370659

Assay: Cmax in Sprague-Dawley rat at 20 mg/kg, po measured upto 1440 mins by LC-MS/MS analysis
Assay type: ADME, organism-based
Design: time < 1440 min, dose 20 mg/kg, route po
Details: in vivo
Experimental Readout: Cmax (ng/mL)
The reply should be a number in ng/mL, with the unit left off.

Exam item: Name the reported Cmax value associated with the molecule `CCn1c(=O)[nH]c(=O)c2c1nc(Cc1cn3cc(C)sc3n1)n2CC1COC1`
Marked response: 2090

---

Test: Plasma protein binding in rat
Format: ADME, cell-free
Conditions: read-out: PPB (converted)
Experimental Readout: fraction unbound
Lab note: jot down the number only; don't add units.

Exam item: Dear colleague, I am looking for the recorded fraction unbound of the following molecule: `CCn1c(=O)[nH]c(=O)c2c1nc(Cc1cn3c(n1)CCCC3)n2Cc1ccccc1`
Marked response: 0.82

Exam item: Follow-up item: `CCn1c(=O)[nH]c(=O)c2c1nc(Cc1cn3ccccc3n1)n2Cc1ccc(-c2ccn(C)n2)cc1`
Marked response: 0.29

Exam item: // same read-out, input: `CCn1c(=O)[nH]c(=O)c2c1nc(Cc1cn3cc(C)sc3n1)n2Cc1ccccc1`
Marked response: 0.21

Exam item: // query: `CCn1c(=O)[nH]c(=O)c2c1nc(Cc1cn3cc(C)sc3n1)n2CC1CC1`
Marked response: 0.17

Others:
Exam item: Reported fraction unbound for `CCn1c(=O)[nH]c(=O)c2c1nc(Cc1cn3cc(Cl)sc3n1)n2Cc1ccc(-c2ccn(C)n2)cc1` : what is it?
Marked response: 0.11

Exam item: What do you have for `CCn1c(=O)[nH]c(=O)c2c1nc(Cc1cn3cc(Cl)sc3n1)n2Cc1ccccc1` ?
Marked response: 0.25

Exam item: Repeat for the following molecule: `CCn1c(=O)[nH]c(=O)c2c1nc(Cc1cn3cc(C)sc3n1)n2CC1COC1`
Marked response: 0.52

Exam item: Another: `CCn1c(=O)[nH]c(=O)c2c1nc(Cc1cn3cc(Cl)sc3n1)n2CC1COC1`
Marked response: 0.5
